Where these numbers come from: patent US20120010075A1

Test system: Leptosphaeria nodorum (LEPTNO)
Assay comment: In vitro fungitoxicity of hydrazones with and without copper towards Leptosphaeria nodorum (Example 26)
Assay type: cell-based
Test settings: copper-plus medium (CuCl2 10 μM); test compound Concn. 0.05 μg/mL; 72 h at 25° C.
Assay metric: LEPTNO % Inhn. Plus Copper Observed (%)
I only need the number, in %, no unit after it.

1) Cc1cccc(C(=O)N/N=C/c2ccc(Cl)cc2O)c1 96.9
2) O=C(N/N=C/c1cc(Br)cc(F)c1O)c1ccc(C(F)(F)F)cc1 97.8
3) O=C(N/N=C/c1ccc(Cl)c(Cl)c1O)c1cccc(Cl)c1 98.3
4) N#Cc1cccc(C(=O)N/N=C/c2cc(Cl)cc(Cl)c2O)c1 97.4

Continue with the next compound.
Any idea what its LEPTNO % Inhn. Plus Copper Observed is? The compound is O=C(N/N=C/c1c(C(F)(F)F)ccc(Cl)c1O)c1ccc(F)cc1 93.5

---

System: Phytophthora infestans
Type: in vivo, Phytophthora infestans on tomato
Test settings: hydrazone 50 ppm + 50 μM CuCl2.2H2O, applied 24 h before inoculation, assessed 7 days after inoculation, tomato
Assay metric: TLB % Control (%)
Give a bare numeral; the unit % is implied.

Look over these answered cases.
Compound	Unit of measurement	Observed value
COc1ccccc1C(=O)N/N=C/c1cc(Br)cc(Br)c1O	%	7.5
COc1ccc(/C(C)=N/NC(=O)c2cccc(C)c2)c(O)c1	%	52.0
Cc1ccc(C(=O)N/N=C/c2cc(Br)cc(Br)c2O)c(C)c1 [Example 32]	%	74.6

Which TLB % Control value belongs to O=C(N/N=C/c1cc(I)cc(I)c1O)c1ccc(Cl)cc1 ? 75.4

Find the recorded TLB % Control belonging to COc1cccc(/C=N/NC(=O)c2ccccc2)c1O and report it. 22.1

Consider the compound shown here: Cc1cc(C)cc(C(=O)N(/N=C/c2cc(Cl)cc(Cl)c2O)C(C)(C)C)c1 What is its recorded TLB % Control? 16.0

---

System: Leptosphaeria nodorum (LEPTNO)
Assay comment: In vitro fungitoxicity of hydrazones with and without copper towards Leptosphaeria nodorum (Example 26)
Assay type: cell-based
Test settings: Parastagonospora nodorum, 72 h, copper-minus medium; test compound Concn. 0.05 μg/mL; 72 h at 25° C.; read-out: LEPTNO % Inhn. Minus Copper Observed
inhibition of growth at 0.05 µg/mL below 2% gives class 0; inhibition of growth at 0.05 µg/mL at or above it gives class 1.

Look over these answered cases.
Compound	Target	Class
N#Cc1cc(F)c(O)c(/C=N/NC(=O)c2ccccc2)c1 [Example 307]	Leptosphaeria nodorum (LEPTNO)	class 0
Cc1ccc(C(=O)N/N=C/c2cc(C(F)(F)F)cc(C(F)(F)F)c2O)cc1 [Example 333]	Leptosphaeria nodorum (LEPTNO)	class 1
O=C(N/N=C/c1ccc(Cl)cc1O)c1cccc(Cl)c1 [Example 391]	Leptosphaeria nodorum (LEPTNO)	class 1
COc1ccc(/C(C)=N/NC(=O)c2ccccc2)c(O)c1OC [Example 551]	Leptosphaeria nodorum (LEPTNO)	class 0

Does C/C(=N\NC(=O)c1cccc(Cl)c1)c1cc(F)cc(F)c1O [Example 577] have a reported inhibition of growth at 0.05 µg/mL of at least 2%? class 0

---

Tested on: Leptosphaeria nodorum (LEPTNO)
Assay comment: In vitro fungitoxicity of hydrazones with and without copper towards Leptosphaeria nodorum (Example 26)
Type: cell-based
Test settings: Parastagonospora nodorum, 72 h, copper-minus medium; test compound Concn. 0.05 μg/mL; 72 h at 25° C.; read-out: LEPTNO % Inhn. Minus Copper Observed
inhibition of growth at 0.05 µg/mL values, listed per item
Expressed in %, but write only the number.

What value of inhibition of growth at 0.05 µg/mL has been recorded for this entry: C/C(=N\NC(=O)c1cccc(C)c1)c1cc(C(F)(F)F)ccc1O 15.3

Can you look up the measured inhibition of growth at 0.05 µg/mL of COc1cc(O)c(/C(C)=N/NC(=O)c2cccc(Cl)c2)c(OC)c1 for me? 2.5

Reported inhibition of growth at 0.05 µg/mL for C/C(=N\NC(=O)c1ccccc1)c1cc(Br)cc(Br)c1O : what is it? 1.6

I have this compound here, O=C(N/N=C/c1c(Cl)ccc(Cl)c1O)c1ccc(F)cc1 , and I need its recorded inhibition of growth at 0.05 µg/mL. 0

Quick one: inhibition of growth at 0.05 µg/mL of O=C(N/N=C/c1cc(C(F)(F)F)cc(C(F)(F)F)c1O)c1ccc([N+](=O)[O-])cc1 ? 1.5

Item COc1ccc(/C(C)=N/NC(=O)c2ccccc2O)c(O)c1 has what recorded inhibition of growth at 0.05 µg/mL? 0

Report inhibition of growth at 0.05 µg/mL for Cc1cccc(C(=O)N/N=C/c2ccc(Cl)c(Cl)c2O)c1 please. 18.4

Which inhibition of growth at 0.05 µg/mL value belongs to COc1ccc(C(=O)N/N=C(\C)c2cc(Cl)cc(Cl)c2O)cc1 ? 1

What value of measured inhibition of growth at 0.05 µg/mL is listed for O=C(N/N=C/c1c(Cl)ccc(Cl)c1O)c1ccc([N+](=O)[O-])cc1 ? 7.2

Would you kindly share the measured inhibition of growth at 0.05 µg/mL for C/C(=N\NC(=O)c1ccccc1C)c1cc(Cl)ccc1O ? 7.1

// inhibition of growth at 0.05 µg/mL lookup, key: COc1cc(O)c(/C(C)=N/NC(=O)c2ccc(Br)cc2)c(OC)c1 3.2

Item under review: C/C(=N\NC(=O)c1ccc(C)cc1)c1cc(C)ccc1O . Reported inhibition of growth at 0.05 µg/mL? 0

Any idea what its inhibition of growth at 0.05 µg/mL is? The compound is O=C(N/N=C/c1c(C(F)(F)F)ccc(Cl)c1O)c1ccc([N+](=O)[O-])cc1 12.4

Name the recorded inhibition of growth at 0.05 µg/mL for Cc1cccc(O)c1C(=O)N/N=C/c1cc(Cl)cc(Cl)c1O . 8

What inhibition of growth at 0.05 µg/mL value was documented for this compound, Cc1cccc(C(=O)N/N=C/c2ccc(Cl)cc2O)c1 ? 13.5

Quick one: inhibition of growth at 0.05 µg/mL for COc1cc(O)c(/C(C)=N/NC(=O)c2ccc(C)cc2)c(OC)c1 ? 6.8

Would you mind telling me what inhibition of growth at 0.05 µg/mL value was observed for COc1cccc(/C(C)=N/NC(=O)c2ccc(Cl)cc2)c1O ? 0.5

Return reported inhibition of growth at 0.05 µg/mL; argument: C/C(=N\NC(=O)c1ccc(Br)cc1)c1ccccc1O 3.7

inhibition of growth at 0.05 µg/mL for Cc1ccc(C(=O)N/N=C/c2cc(C(F)(F)F)cc(Cl)c2O)cc1 ? 20.9

---

Readings of melting point for the listed compounds

// worked examples, melting point included
1) Cc1ccc(C(=O)N/N=C/c2ccc(Cl)cc2O)c(O)c1 283 to 287 °C
2) COc1ccc(C(=O)N/N=C(\C)c2ccc(OC)cc2O)cc1 226 to 227 °C
3) COc1ccc(C(=O)N/N=C(\C)c2cccc([N+](=O)[O-])c2O)cc1 204 to 212 °C
4) Cc1ccc(C(=O)N/N=C/c2cc(C(F)(F)F)ccc2O)cc1 245 to 249 °C
5) O=C(N/N=C/c1ccccc1O)c1cc(Cl)ccc1Br 222 to 225 °C
6) O=C(N/N=C/c1ccc(Cl)c(Cl)c1O)c1cccc(Cl)c1 219 to 222 °C
7) Cc1ccc(C(=O)N/N=C/c2cc(C(F)(F)F)cc(C(F)(F)F)c2O)c(O)c1 251 to 254 °C
8) C/C(=N\NC(=O)c1cccc(C)c1O)c1cc(Cl)cc(Cl)c1O 278 to 279 °C
9) Cc1ccc(C(=O)N/N=C/c2cccc(C(F)(F)F)c2O)cc1 239 to 241 °C
10) COc1cccc(C(=O)N/N=C/c2cc(Cl)cc(Cl)c2O)c1C 192 to 194 °C

Entry COc1ccc(C(=O)N/N=C(\C)c2cccc(OC)c2O)cc1 : reported melting point = ? 140 to 141 °C

Value lookup for melting point; key = C/C(=N\NC(=O)c1ccccc1C)c1cc(C(F)(F)F)ccc1O 200 to 203 °C

Quick check: melting point of COc1cccc(/C(C)=N/NC(=O)c2ccc(Cl)cc2)c1O ? 168 to 170 °C

Using the record for C/C(=N\NC(=O)c1ccc(C)cc1)c1ccc(Cl)cc1O , report its melting point. 254 to 256 °C

Dear colleague, I am looking for the recorded melting point of the following compound: C/C(=N\NC(=O)Cc1ccccc1)c1cc(Cl)cc(Cl)c1O 199 to 204 °C

Return reported melting point; argument: O=C(N/N=C/c1cc(Cl)cc(C(F)(F)F)c1O)c1cccc([N+](=O)[O-])c1 235 to 237 °C

What value of melting point has been reported for the following compound? COc1ccc(/C(C)=N/NC(=O)c2ccccc2O)c(O)c1OC 279 to 297 °C

I have this compound here, COc1ccc(/C(C)=N/NC(=O)c2cccc(C)c2)c(O)c1OC , and I need its recorded melting point. 158 to 162 °C

Which melting point is listed for O=C(N/N=C/c1cc(Cl)cc(Cl)c1O)c1cccc(Oc2ccccc2)c1 ? 170 to 171 °C
